# System: Plasmodium berghei
# assay-details: Screen against P. berghei liver stage (PbLuc), transformed with Luciferase, at 10uM
# Format: functional, HepG2
# settings: tested at 10 uM
Hit rate of the full screen: of about 69,000 compounds, about 8,600 (12%) showed an effect of 50% or more. This excerpt belongs to a sample that is enriched for strong results.
Each entry falls into one class according to its INHIBITION; the ranges are bottom bin = under 10%, middle bin = from 10% up to 40%, top bin = 40% and over

-- ask # classify by INHIBITION band: "Cc1ccnc(NCCNC(=O)c2ccccc2NCC(=O)O)c1"
-- reply middle bin

-- ask # classify by INHIBITION band: "CCOc1ccc(Cl)cc1NC(=O)N1CCC(n2cncn2)CC1"
-- reply top bin

-- ask # classify by INHIBITION band: "COCCN1C[C@@H]2COC[C@@H](CC(=O)NCc3cccnc3)[C@@H]2C1"
-- reply top bin

-- ask # classify by INHIBITION band: "CCc1nc(C)c(C(=O)N[C@@H]2c3ccccc3C[C@@H]2O)o1"
-- reply bottom bin

-- ask # classify by INHIBITION band: Cc1cccc(CN2Cc3nccn3CC(CN3CCOCC3)C2)c1 (stereo unspecified)
-- reply top bin

-- ask # classify by INHIBITION band: "NS(=O)(=O)CCCNC(=O)c1cnc(-c2ccsc2)s1"
-- reply top bin

-- ask # classify by INHIBITION band: "CCc1oc(C(=O)N[C@@H]2c3ccccc3C[C@@H]2O)cc1C"
-- reply middle bin

-- ask # classify by INHIBITION band: "CNC(=O)CCc1cc(C2CCNCC2)nc(C)n1"
-- reply middle bin

-- ask # classify by INHIBITION band: "O=C(C1CCCC1)N1CCC(Nc2ccncn2)CC1"
-- reply top bin

-- ask # classify by INHIBITION band: "COC(=O)c1cc(CN2CCC(c3noc(C)n3)CC2)c(C)s1"
-- reply bottom bin

-- ask # classify by INHIBITION band: "O=C(Nc1ccc2c(ccn2CCN2CCOCC2)c1)c1ccncc1"
-- reply bottom bin

====

# Tested on: Plasmodium berghei
# assay-details: Screen against P. berghei liver stage (PbLuc), transformed with Luciferase, at 10uM
# Format: functional, HepG2
# settings: tested at 10 uM
About 8,600 (12%) of roughly 69,000 compounds showed an effect of 50% or more. This excerpt belongs to a sample that is enriched for strong results.
measured-quantity: INHIBITION

-- ask Short answer please: INHIBITION, Plasmodium berghei, entry NCC1CCC(C(NC(=O)c2ccccc2)c2ccccn2)CC1 (stereo unspecified)
-- reply 48.8%

-- ask Short answer please: INHIBITION, Plasmodium berghei, entry "Cc1c[nH]c(CN2CCCn3nc(CNS(C)(=O)=O)cc3C2)n1"
-- reply 66.6%

-- ask Short answer please: INHIBITION, Plasmodium berghei, entry "CCc1noc(CN(CCS(C)(=O)=O)C(C)(C)C)n1"
-- reply -37.1%

-- ask Short answer please: INHIBITION, Plasmodium berghei, entry "CS(=O)(=O)N1CCCn2nc(CNc3ncccn3)cc2C1"
-- reply 34.9%

-- ask Short answer please: INHIBITION, Plasmodium berghei, entry CCC(=O)N1CCCCC1c1nc(N(C)C)ncc1-c1cc(C)no1 (stereo unspecified)
-- reply 22.5%

-- ask Short answer please: INHIBITION, Plasmodium berghei, entry "CCS(=O)(=O)N(C)CCCNCc1c(C)nn(C)c1N(C)C"
-- reply 19.15%

-- ask Short answer please: INHIBITION, Plasmodium berghei, entry Cc1c[nH]c(C2COCCN2C(=O)CCc2c(C)n[nH]c2C)n1 (stereo unspecified)
-- reply -3.65%

-- ask Short answer please: INHIBITION, Plasmodium berghei, entry "Cc1nccc(NCc2cc3n(n2)CCCN(S(C)(=O)=O)C3)n1"
-- reply 24.9%

-- ask Short answer please: INHIBITION, Plasmodium berghei, entry "COc1ccc(Cc2ncc3c(n2)CN(C(=O)C(C)(C)OC)C3)cc1"
-- reply 11.2%

-- ask Short answer please: INHIBITION, Plasmodium berghei, entry COCCN1CCCC1c1nccnc1Nc1ncc(C)s1 (stereo unspecified)
-- reply 8.53%

-- ask Short answer please: INHIBITION, Plasmodium berghei, entry "Cc1cc(NCc2cc3n(n2)CCCN(S(C)(=O)=O)C3)ncn1"
-- reply -9.86%
